- System: human ABCB11 mRNA
- Assay details: ASO treatment of primary human hepatocytes (PHH), ABCB11 mRNA by RT-qPCR normalized to B2M
- Format: cell-based
- Recorded conditions: primary human hepatocytes, 5 μM ASO with PO-modifications, normalized to untreated hepatocytes
Strand notation (5' to 3'): a small letter for the sugar, then the base; units joined by * are phosphorothioate-linked, units joined directly phosphodiester-linked; [ ] holds rarer units or linkages, { } end groups; capitals alone tell only the bases. e = 2'-O-(2-methoxyethyl) (MOE); l = locked nucleic acid (LNA); [5mC] = 5-methylcytosine
Quantity kind: ABCB11 FC mRNA (5 μM ASO vs. untreated)
Mention the unit after the number when you answer.

Entry CO-11239 (antisense eG*eT*eG*eGlA*eG*e[5mC]*eAeA*lA*e[5mC]*eTeA*eG*lG*e[5mC]eA*e[5mC]*eT*eG) ; ABCB11 FC mRNA (5 μM ASO vs. untreated) = 1.53 fold change

Entry CO-12752 (antisense eG*eTeG*eA*eG*eGe[5mC]*eA*eT*e[5mC]eA*eG*eG*eTeA*eA*eG*eTeT*e[5mC]) ; ABCB11 FC mRNA (5 μM ASO vs. untreated) = 0.99 fold change

Entry CO-11223 (antisense eG*eT*lG*eGeAlGe[5mC]*eA*lA*eA*e[5mC]*lT*eA*eGlGe[5mC]eA*l[5mC]*eT*eG) ; ABCB11 FC mRNA (5 μM ASO vs. untreated) = 1.80 fold change

Entry CO-11237 (antisense eG*eTeGeGlAeGe[5mC]*eA*eA*lA*e[5mC]*eT*eA*eGlGe[5mC]eAe[5mC]eT*eG) ; ABCB11 FC mRNA (5 μM ASO vs. untreated) = 1.56 fold change

Entry CO-11209 (antisense eT*eGeT*eTeT*eTeG*e[5mC]eT*eTeG*eGeT*e[5mC]eA*eAeG*eAeG*eG) ; ABCB11 FC mRNA (5 μM ASO vs. untreated) = 1.11 fold change

Entry CO-11235 (antisense eG*eT*eG*eGlAeGe[5mC]*eA*eA*lA*e[5mC]*eT*eA*eGlGe[5mC]eA*e[5mC]*eT*eG) ; ABCB11 FC mRNA (5 μM ASO vs. untreated) = 1.47 fold change

Entry CO-12750 (antisense eG*eT*eG*eAeG*eG*e[5mC]*eAeT*e[5mC]*eA*eGeG*eT*eA*eAeG*eT*eT*e[5mC]) ; ABCB11 FC mRNA (5 μM ASO vs. untreated) = 1.39 fold change

Entry CO-11230 (antisense eG*eTlG*eG*eAlG*e[5mC]*eAlA*eA*e[5mC]lT*eA*eGlG*e[5mC]*eAl[5mC]*eT*eG) ; ABCB11 FC mRNA (5 μM ASO vs. untreated) = 1.63 fold change

Entry CO-12753 (antisense eG*eTeG*eA*eGeG*e[5mC]*eAeT*e[5mC]*eAeG*eG*eTeA*eA*eGeT*eT*e[5mC]) ; ABCB11 FC mRNA (5 μM ASO vs. untreated) = 1.03 fold change

Entry CO-12756 (antisense eG*eTeG*eAeG*eGe[5mC]*eAeT*e[5mC]eA*eGeG*eTeA*eAeG*eTeT*e[5mC]) ; ABCB11 FC mRNA (5 μM ASO vs. untreated) = 1.33 fold change

Entry CO-11217 (antisense eG*eTlG*eG*lA*eGl[5mC]*eA*lA*eAl[5mC]eT*lA*eGlG*e[5mC]*lA*e[5mC]eT*eG) ; ABCB11 FC mRNA (5 μM ASO vs. untreated) = 2.10 fold change

Entry CO-11207 (antisense eT*eG*eTeT*eT*eTeG*e[5mC]*eTeT*eG*eGeT*e[5mC]*eAeA*eG*eAeG*eG) ; ABCB11 FC mRNA (5 μM ASO vs. untreated) = 0.91 fold change

Entry CO-11238 (antisense eG*eT*eGeG*lA*eG*e[5mC]*eAeA*lA*e[5mC]*eT*eAeG*lG*e[5mC]*eA*e[5mC]eT*eG) ; ABCB11 FC mRNA (5 μM ASO vs. untreated) = 1.26 fold change

Entry CO-11231 (antisense eG*eT*lGeG*eA*lGe[5mC]*eA*lAeA*e[5mC]*lTeA*eG*lGe[5mC]*eA*l[5mC]eT*eG) ; ABCB11 FC mRNA (5 μM ASO vs. untreated) = 1.85 fold change

Entry CO-11236 (antisense eG*eT*eGeGlAeGe[5mC]*eA*eA*lA*e[5mC]*eT*eA*eGlGe[5mC]eAe[5mC]*eT*eG) ; ABCB11 FC mRNA (5 μM ASO vs. untreated) = 1.60 fold change

Entry CO-11243 (antisense eG*eT*eGeG*lA*eGe[5mC]*eA*eAlA*e[5mC]*eTeA*eG*lGe[5mC]*eA*e[5mC]eT*eG) ; ABCB11 FC mRNA (5 μM ASO vs. untreated) = 1.71 fold change

Entry CO-11233 (antisense eG*eTlG*eGeA*lGe[5mC]*eAlA*eAe[5mC]*lTeA*eGlG*e[5mC]eA*l[5mC]eT*eG) ; ABCB11 FC mRNA (5 μM ASO vs. untreated) = 1.60 fold change

Entry CO-11245 (antisense eG*eTeG*eGlA*eGe[5mC]*eAeA*lAe[5mC]*eTeA*eGlG*e[5mC]eA*e[5mC]eT*eG) ; ABCB11 FC mRNA (5 μM ASO vs. untreated) = 1.59 fold change

Entry CO-11198 (antisense eT*eG*eT*eT*eTeTeG*e[5mC]*eT*eT*eG*eG*eT*e[5mC]eAeA*eG*eA*eG*eG) ; ABCB11 FC mRNA (5 μM ASO vs. untreated) = 0.97 fold change

Entry CO-11234 (antisense eG*eT*eG*eG*lAeGe[5mC]*eA*eA*lA*e[5mC]*eT*eA*eGlGe[5mC]*eA*e[5mC]*eT*eG) ; ABCB11 FC mRNA (5 μM ASO vs. untreated) = 1.55 fold change

Entry CO-11213 (antisense eG*eTlGeGlAeGl[5mC]*eA*lA*eA*l[5mC]*eT*lA*eGlGe[5mC]lAe[5mC]eT*eG) ; ABCB11 FC mRNA (5 μM ASO vs. untreated) = 1.95 fold change

Entry CO-11208 (antisense eT*eG*eTeT*eTeT*eGe[5mC]*eTeT*eGeG*eTe[5mC]*eAeA*eGeA*eG*eG) ; ABCB11 FC mRNA (5 μM ASO vs. untreated) = 1.04 fold change

Entry CO-11201 (antisense eT*eGeTeTeTeTeG*e[5mC]*eT*eT*eG*eG*eT*e[5mC]eAeAeGeAeG*eG) ; ABCB11 FC mRNA (5 μM ASO vs. untreated) = 0.99 fold change

Entry CO-11215 (antisense eG*eT*lG*eGlA*eG*l[5mC]*eAlA*eA*l[5mC]*eTlA*eG*lG*e[5mC]lA*e[5mC]*eT*eG) ; ABCB11 FC mRNA (5 μM ASO vs. untreated) = 2.68 fold change

Entry CO-11226 (antisense eG*eT*lGeG*eA*lG*e[5mC]*eAlA*eA*e[5mC]*lT*eAeG*lG*e[5mC]*eA*l[5mC]eT*eG) ; ABCB11 FC mRNA (5 μM ASO vs. untreated) = 2.31 fold change

Entry CO-11242 (antisense eG*eTeG*eG*lAeG*e[5mC]*eAeA*lA*e[5mC]eT*eA*eGlG*e[5mC]*eAe[5mC]*eT*eG) ; ABCB11 FC mRNA (5 μM ASO vs. untreated) = 1.49 fold change

Entry CO-12749 (antisense eG*eT*eGeA*eG*eG*e[5mC]*eAeT*e[5mC]*eA*eG*eGeT*eA*eA*eG*eTeT*e[5mC]) ; ABCB11 FC mRNA (5 μM ASO vs. untreated) = 0.95 fold change
